Give measured ratio to parent for each item. Keep answers brief.
B1: Flag-CNK^2–549 [Drosophila] / GST-HYP [Drosophila] (parent complex)
chain 1: AYINIAEWTPDQVTDWIKGLDESMKGYLYEFSKQEIGGRALLNIRPYELENLGMLRIGHQEIVLEAVENLRNFHYHLKNDNLQFMALHVATAAKNLHRELARNHAESTKIDTRILHDITRTIATLKPLVGSLERTPFRKQEMYREYCGNVLKCGLELATIAHRDRFALQPVPAIRQSAERLENLANFVIQDISDPMVLQPASLNLVTLKKRESELGFNIESSYNGIHRVTDIKYNSPAHNSGKIEDGDEIVQINYQTVVGWQHRTVLEHLREALPDVVLTVKKRPKHTKMFGQIYMQPYRLPSKKRNMAARWAAQMPSPRAAFLTLDTEQLATGGTGSAVPDPSKSLSSEKREVLTKANPVSSASDSDSSCSDIPTPTDPKLAAREIRLYYPKPRALLQRRNTICGCEYLSLKNSDLVVPSWHERKPGIGSPTNCDPGSPSIRDKSISFGYGLEMAARPTTCIGIAGDTSTDKARRMFHEARKLKQLTEDSQREFLVDRYKPGVSKVVRFDAKEDYVMKNEKFICNVENTILETFEPIPFADEGDEDA
chain 2: MGEETINSTQNKTRTKTTRPKAVYLWTVSDVLKWYRRHCGEYTQYEQLFAQHDITGRALLRITDSSLQRMGVTDNRDREAIWREIVKQRLKTDIMEIRDMERLNIY

# Variants of: B1
# Measurement protocol: GST pull-down, immunoblot quantification; S2 cells; only Flag-CNK2–549 and GST-HYP co-expressed; anti-Flag (CNK) blot; parent: 1

These recorded examples may help you get a feel for the data.
{"Mutation key": "chain 1 Y75R", "Experimental result": 0.93}
{"Mutation key": "chain 1 R98E", "Experimental result": 1.27}
{"Mutation key": "chain 1 N81E", "Experimental result": 0.9}
{"Mutation key": "chain 1 Q83E", "Experimental result": 1.12}
{"Mutation key": "chain 1 N95E", "Experimental result": 0.99}
{"Mutation key": "chain 1 R45F", "Experimental result": 0.73}

Find the recorded ratio to parent belonging to chain 1 N81W and report it.
0.7

Measured values drawn from paper PMC11257983 for this set.
